Source of measurements: patent US20140057807A1

molecular target: T1, yeast small ubiquitin-like modifier protein (yeast, UniProt Q12306 3-98 = SUMO); assay: SPR; column 'Estimated Kd (nM)' [Continued]
T1 construct: GST fusion in most phage ELISAs, His-tagged or tag-cleaved elsewhere; also called ySUMO; yeast SUMO
T1 sequence (Q12306 3-98 limits assumed): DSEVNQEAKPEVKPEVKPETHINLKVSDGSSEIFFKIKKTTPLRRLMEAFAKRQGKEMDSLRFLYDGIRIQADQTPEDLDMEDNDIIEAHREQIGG
Property Measured: Kd (µM)
Give bare numbers, in µM.

Binder	Readout Units	Kd
ySMB-91 (designed binder, variable loops only; library YS) VSSVPTKLEVVAATPTSLLISWDASYSSSSVSYYRITYGETGGNSPVQEFTVPGSSSTATISGLSPGVDYTITVYAYYYSYYYYYSYSPISINYRT	µM	1
ySMB-67 (designed binder, variable loops only; library YSGW) VSSVPTKLEVVAATPTSLLISWDAGSFGFHDPVYYYRITYGETGGNSPVQEFTVPGSSSTATISGLSPGVDYTITVYAYYQYMDYYYSYSPISINYRT	µM	1
ySMB-74 (designed binder, variable loops only; library YSGW) VSSVPTKLEVVAATPTSLLISWDASSSSVSYYRITYGETGGNSPVQEFTVPGSSSTATISGLSPGVDYTITVYAYYYFYDYWMAYSPISINYRT	µM	0.544

Entry ySMB-90 (designed binder, variable loops only; library YS) VSSVPTKLEVVAATPTSLLISWDASSSSVSYYRITYGETGGNSPVQEFTVPGSSSTATISGLSPGVDYTITVYAYYYSYYYSYSYSPISINYRT , Kd reported as 0.32
